- system-name: human α7 nAChR (Homo sapiens, UniProt P36544)
- Construct: host or cells: HEK
- Sequence (P36544 23-502): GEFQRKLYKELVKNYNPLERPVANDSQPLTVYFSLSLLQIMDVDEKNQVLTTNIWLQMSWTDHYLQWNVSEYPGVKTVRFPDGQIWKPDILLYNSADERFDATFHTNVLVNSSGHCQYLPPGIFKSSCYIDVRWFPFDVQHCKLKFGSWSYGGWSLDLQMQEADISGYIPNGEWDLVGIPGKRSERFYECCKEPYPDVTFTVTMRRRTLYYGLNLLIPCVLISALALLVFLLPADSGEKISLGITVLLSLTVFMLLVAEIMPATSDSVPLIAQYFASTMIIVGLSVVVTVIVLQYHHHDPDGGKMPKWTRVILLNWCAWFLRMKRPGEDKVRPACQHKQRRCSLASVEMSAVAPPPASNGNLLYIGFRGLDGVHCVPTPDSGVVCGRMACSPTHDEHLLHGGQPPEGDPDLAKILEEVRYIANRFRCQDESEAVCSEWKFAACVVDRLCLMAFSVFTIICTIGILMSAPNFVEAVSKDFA
- assay-remarks: Automated patch-clamp electrophysiology functional assay (Assay A)
- Format: cell-based
- measurement-conditions: HEK cell line stably expressing human RIC-3 and human α7; IonFlux HT whole-cell population patch; with or without 40 μM acetylcholine; read-out: α7 nAChR EC50
Can you tell me EC50 for the items I'm about to list?
Answer format: numeric, nM implied, no suffix.

input: Provide the documented EC50 with human α7 nAChR (Homo sapiens, UniProt P36544) as the system for NS(=O)(=O)N1CCC2(CC1)C[C@H]2COc1cccc(N2CCOCC2)n1 [Example 16]
output: 100

input: Also, Cc1ccc(C)c(NC[C@@H]2C(F)(F)C23CCN(S(N)(=O)=O)CC3)c1 [Example A60] please.
output: 11

input: Another compound to check: NS(=O)(=O)N1CCC2(CC1)C[C@@H]2COc1cccc(OCC(F)(F)F)n1 [Example A38]
output: 720

input: Same question for NS(=O)(=O)N1CCC2(CC1)C(COc1ccnc(OCC(F)(F)F)c1)C2(F)F (single isomer, unassigned) [Example A34] please.
output: 550
